As shown below, each of these sequences has a reported melting temperature value.
tested on: HeLa Kyoto; experiment: melting temperature (median over replicates), in situ; higher = more thermally stable; details: cell cycle stage: mitosis
MEASURED PARAMETER: melting temperature (°C)

# RESIDUE STRING, OBSERVED MEASUREMENT
rows = [
    ("MADIIARLREDGIQKRVIQEGRGELPDFQDGTKATFHYRTLHSDDEGTVLDDSRARGKPMELIIGKKFKLPVWETIVCTMREGEIAQFLCDIKHVVLYPLVAKSLRNIAVGKDPLEGQRHCCGVAQMREHSSLGHADLDALQQNPQPLIFHMEMLKVESPGTYQQDPWAMTDEEKAKAVPLIHQEGNRLYREGHVKEAAAKYYDAIACLKNLQMKEQPGSPEWIQLDQQITPLLLNYCQCKLVVEEYYEVLDHCSSILNKYDDNVKAYFKRGKAHAAVWNAQEAQADFAKVLELDPALAPVVSRELRALEARIRQKDEEDKARFRGIFSH [AIP]", 50.3),
    ("MARVLKAAAANAVGLFSRLQAPIPTVRASSTSQPLDQVTGSVWNLGRLNHVAIAVPDLEKAAAFYKNILGAQVSEAVPLPEHGVSVVFVNLGNTKMELLHPLGRDSPIAGFLQKNKAGGMHHICIEVDNINAAVMDLKKKKIRSLSEEVKIGAHGKPVIFLHPKDCGGVLVELEQA [MCEE]", 56.1),
]

---

system: HeLa Kyoto; assay: solubility change mitosis vs G1/S (difference of NP-40 vs SDS log2 ratios) (log2 ratio difference); higher = more soluble in mitosis
Parameter solubility change mitosis (log2): see the listing below.
MEASURED PARAMETER: solubility change mitosis (log2)

# RESIDUE STRING, OBSERVED MEASUREMENT
rows = [
    ("MSAYPKSYNPFDDDGEDEGARPAPWRDARDLPDGPDAPADRQQYLRQEVLRRAEATAASTSRSLALMYESEKVGVASSEELARQRGVLERTEKMVDKMDQDLKISQKHINSIKSVFGGLVNYFKSKPVETPPEQNGTLTSQPNNRLKEAISTSKEQEAKYQASHPNLRKLDDTDPVPRGAGSAMSTDAYPKNPHLRAYHQKIDSNLDELSMGLGRLKDIALGMQTEIEEQDDILDRLTTKVDKLDVNIKSTERKVRQL [SNAP29]", 0.314),
    ("MPKHEFSVDMTCGGCAEAVSRVLNKLGGVKYDIDLPNKKVCIESEHSMDTLLATLKKTGKTVSYLGLE [ATOX1]", 0.149),
    ("MGIWQRLLLFGGVSLRAGGGATAPLGGSRAMVCGRQLSGAGSETLKQRRTQIMSRGLPKQKPIEGVKQVIVVASGKGGVGKSTTAVNLALALAANDSSKAIGLLDVDVYGPSVPKMMNLKGNPELSQSNLMRPLLNYGIACMSMGFLVEESEPVVWRGLMVMSAIEKLLRQVDWGQLDYLVVDMPPGTGDVQLSVSQNIPITGAVIVSTPQDIALMDAHKGAEMFRRVHVPVLGLVQNMSVFQCPKCKHKTHIFGADGARKLAQTLGLEVLGDIPLHLNIREASDTGQPIVFSQPESDEAKAYLRIAVEVVRRLPSPSE [NUBPL]", 0.138),
]

---

system: HeLa Kyoto; assay: melting temperature (median over replicates), in situ; higher = more thermally stable; conditions: cell cycle stage: mitosis

# RESIDUE STRING, melting temperature, °C
data = [
    ("MDNYADLSDTELTTLLRRYNIPHGPVVGSTRRLYEKKIFEYETQRRRLSPPSSSAASSYSFSDLNSTRGDADMYDLPKKEDALLYQSKGYNDDYYEESYFTTRTYGEPESAGPSRAVRQSVTSFPDADAFHHQVHDDDLLSSSEEECKDRERPMYGRDSAYQSITHYRPVSASRSSLDLSYYPTSSSTSFMSSSSSSSSWLTRRAIRPENRAPGAGLGQDRQVPLWGQLLLFLVFVIVLFFIYHFMQAEEGNPF [EMD]", 51.7),
    ("MSFLKSFPPPGPAEGLLRQQPDTEAVLNGKGLGTGTLYIAESRLSWLDGSGLGFSLEYPTISLHALSRDRSDCLGEHLYVMVNAKFEEESKEPVADEEEEDSDDDVEPITEFRFVPSDKSALEAMFTAMCECQALHPDPEDEDSDDYDGEEYDVEAHEQGQGDIPTFYTYEEGLSHLTAEGQATLERLEGMLSQSVSSQYNMAGVRTEDSIRDYEDGMEVDTTPTVAGQFEDADVDH [CLNS1A]", 52.6),
    ("MAVFADLDLRAGSDLKALRGLVETAAHLGYSVVAINHIVDFKEKKQEIEKPVAVSELFTTLPIVQGKSRPIKILTRLTIIVSDPSHCNVLRATSSRARLYDVVAVFPKTEKLFHIACTHLDVDLVCITVTEKLPFYFKRPPINVAIDRGLAFELVYSPAIKDSTMRRYTISSALNLMQICKGKNVIISSAAERPLEIRGPYDVANLGLLFGLSESDAKAAVSTNCRAALLHGETRKTAFGIISTVKKPRPSEGDEDCLPASKKAKCEG [RPP30]", 56.1),
]
